All values here come from paper PMC2929814.

- Tested on: mouse spleen lymphocytes
- test: Cytotoxicity against mouse spleen lymphocytes
- assaySetup: estimated ±50%
measuredMetric: Cytotoxicity (µM)
Write down the numeric answer in µM and omit the unit.

compound	targetUnderTest	unitSpec	endpointResult
Clc1ccc2c(NCCN(CCN(Cc3ccccc3)Cc3ccccc3)CCN(Cc3ccccc3)Cc3ccccc3)ccnc2c1	mouse spleen lymphocytes	µM	6.2

Please report the recorded Cytotoxicity for "Clc1ccc2c(N3CCN(CCN(Cc4ccccc4)Cc4ccccc4)CC3)ccnc2c1" . 61

Thanks! And "O=C(CNCCNc1ccnc2cc(Cl)ccc12)N(c1ccccc1)c1ccccc1" ? 62

Thanks! And "Clc1ccc2c(NCCCNCCCCN(Cc3ccccc3)Cc3ccccc3)ccnc2c1" ? 1.3

Thanks! And "CN(CCCNc1ccnc2cc(Cl)ccc12)CCCN1c2ccccc2CCc2ccccc21" ? 0.7

Thanks! And CCN(CC)CCCC(C)Nc1ccnc2cc(Cl)ccc12 (stereo not drawn) [CQ, chloroquine, reference compound] ? 12
